Biological target: cellular TGF-β R1 ALK5 (Homo sapiens, UniProt P36897)
Sequence (P36897 34-503): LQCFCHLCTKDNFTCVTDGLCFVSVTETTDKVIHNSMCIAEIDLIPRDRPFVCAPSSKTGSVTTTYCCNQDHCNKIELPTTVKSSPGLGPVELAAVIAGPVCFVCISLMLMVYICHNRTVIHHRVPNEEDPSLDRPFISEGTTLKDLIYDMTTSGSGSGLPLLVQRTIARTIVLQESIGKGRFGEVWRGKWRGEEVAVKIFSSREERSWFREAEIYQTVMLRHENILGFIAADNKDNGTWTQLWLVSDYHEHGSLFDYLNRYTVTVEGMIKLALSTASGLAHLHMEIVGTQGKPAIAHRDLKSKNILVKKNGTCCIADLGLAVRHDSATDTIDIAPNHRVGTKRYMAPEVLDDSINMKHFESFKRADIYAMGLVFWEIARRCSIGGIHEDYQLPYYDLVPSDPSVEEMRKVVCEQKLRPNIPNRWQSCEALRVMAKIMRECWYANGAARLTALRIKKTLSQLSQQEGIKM
Assay: Cellular inhibition of ALK5 (CellSensor SBE-bla HEK 293T beta-lactamase reporter)
Settings: cellular inhibition of ALK5, SBE-bla HEK 293T cells, TGFb-1 stimulated 5 hours; average where measured in multiple experiments
pIC50: −log10 of the molar value.
readout.name: pIC50

{"compound": "Cc1cnc(-c2cc(F)ccc2F)cc1Nc1ccnc2cn(CC(C)O)nc12 (stereo not drawn)", "pIC50": 6.90}
{"compound": "Cc1ccc(F)c(-c2cc(Nc3c(F)cnc4cn(CCO)nc34)c(C)cn2)n1", "pIC50": 6.80}
{"compound": "Cc1ccc(F)c(-c2cc(Nc3ccnc4cn(CCC(C)(C)O)nc34)c(C)cn2)n1", "pIC50": 6.70}

P = CNC(=O)Cn1cc2nccc(Nc3cc(-c4nc(C)ccc4F)ncc3C)c2n1
Q = CCn1ncc2nccc(Nc3cc(-c4nc(C)ccc4F)ncc3C)c21
R = Cc1ccc(F)c(-c2cc(Nc3ccnc4cn(C[C@@H](C)O)nc34)c(C)cn2)n1
S = Cc1ccc(F)c(-c2cc(Nc3ccnc4cn(CC(F)F)nc34)ccn2)n1
T = Cc1ccc(F)c(-c2cc(Nc3ccnc4cn(C(C)C)nc34)ccn2)n1
IN: Rank entries according to their pIC50, from the largest number down. Your task in answering is to list the labels in the requested order.
OUT: Q, R, S, P, T
(Q: 7.30, R: 6.80, S: 6.50, P: 6.30, T: 5.90)

* * *

Molecular target: cellular TGF-β R1 ALK5 (Homo sapiens, UniProt P36897)
Construct: host or cells: CellSensor SBE-bla HEK 293T
Assay: Cellular inhibition of ALK5 (CellSensor SBE-bla HEK 293T beta-lactamase reporter)
Format: cell-based
Conditions: cellular inhibition of ALK5, SBE-bla HEK 293T cells, TGFb-1 stimulated 5 hours; average where measured in multiple experiments
readout.name: IC50 (nM)

The cases that follow already have their IC50 on record.
{"molecule": "Cc1ccc(F)c(-c2cc(Nc3ccnc4cn(C5CC5)nc34)ccn2)n1 [Example 121]", "assay.system": "cellular TGF-β R1 ALK5 (Homo sapiens, UniProt P36897)", "IC50, nM": 12.6}
{"molecule": "Cc1ccc(F)c(-c2cc(Nc3ccnc4cnn(C[C@H](C)O)c34)ccn2)n1 [Example 106]", "assay.system": "cellular TGF-β R1 ALK5 (Homo sapiens, UniProt P36897)", "IC50, nM": 1260}
{"molecule": "Cc1ccc(F)c(-c2cc(Nc3c(F)cnc4cn(CC(N)=O)nc34)c(C)cn2)n1 [Example 88]", "assay.system": "cellular TGF-β R1 ALK5 (Homo sapiens, UniProt P36897)", "IC50, nM": 158}
{"molecule": "Cc1ccc(F)c(-c2cc(Nc3ccnc4cnn(CC5CC5)c34)ccn2)n1 [Example 89]", "assay.system": "cellular TGF-β R1 ALK5 (Homo sapiens, UniProt P36897)", "IC50, nM": 200}

A = Cc1nc(-c2cc(F)ccc2F)cc(Nc2ccnc3c[nH]nc23)c1C [Example 95]
B = Cc1ccc(F)c(-c2cc(Nc3ccnc4cnn(C)c34)c(C)cn2)n1 [Example 124]
C = Cc1ccc(F)c(-c2cc(Nc3ccnc4cnn(CCF)c34)ccn2)n1 [Example 101]
D = CNC(=O)n1ncc2nccc(Nc3ccnc(-c4cc(F)ccc4F)c3)c21 [Example 94]
E = Cc1ccc(F)c(-c2cc(Nc3ccnc4cnn(CCO)c34)ccn2)n1 [Example 71]
IN: Number of molecules to sort: 5. Sort criterion: IC50, ascending. Your task in answering is to list the labels in the requested order.
OUT: B, D, E, C, A
